- TARGET_OF_ASSAY: T1, human galectin-10-His (recombinant human galectin-10 with TEV-cleavable N-terminal His-tag) (human)
- T1 construct: SEC-MALLS: dimer in solution; also called Gal10-His; humanGal10-His
- T1 chain: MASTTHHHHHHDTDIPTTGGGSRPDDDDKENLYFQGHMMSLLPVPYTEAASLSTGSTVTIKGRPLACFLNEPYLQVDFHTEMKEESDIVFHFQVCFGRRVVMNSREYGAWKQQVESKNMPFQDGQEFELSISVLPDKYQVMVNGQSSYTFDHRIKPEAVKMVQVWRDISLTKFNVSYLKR
- EXPERIMENTAL_DETAILS: BLI tandem on galectin-10-His; competitor: saturating 6A05 mIgG1 (10 ug/mL)
# binding signal (nm) annotations
Give the number; nm is assumed, so skip it.

// known answers, use as guide
{"columns": ["BINDER", "EXPERIMENTAL_ENDPOINT", "UNIT_SPEC", "QUANTITATIVE_RESULT"],
 "data": [
  ["6E10 mouse IgG1 (antibody, V domains shown, also called 6E010; 6E10 mIgG1) VH: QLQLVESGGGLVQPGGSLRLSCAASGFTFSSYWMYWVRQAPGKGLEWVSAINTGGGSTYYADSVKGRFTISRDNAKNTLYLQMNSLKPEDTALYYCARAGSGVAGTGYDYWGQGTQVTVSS VL: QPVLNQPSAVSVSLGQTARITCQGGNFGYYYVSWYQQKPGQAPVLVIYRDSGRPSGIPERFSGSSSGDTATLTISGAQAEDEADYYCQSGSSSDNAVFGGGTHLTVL", "binding signal (nm)", "nm", 0.09],
  ["4E08 mouse IgG1 (antibody, V domains shown, VH on mouse IgG1 heavy chain constant domains (CH1-CH2-CH3), VL on mouse lambda light chain constant domain; also called 4E8; 4E08 mIgG1) VH: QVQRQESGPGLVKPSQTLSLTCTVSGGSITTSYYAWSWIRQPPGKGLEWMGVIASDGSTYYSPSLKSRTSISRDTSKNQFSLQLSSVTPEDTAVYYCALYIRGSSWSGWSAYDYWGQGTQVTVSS VL: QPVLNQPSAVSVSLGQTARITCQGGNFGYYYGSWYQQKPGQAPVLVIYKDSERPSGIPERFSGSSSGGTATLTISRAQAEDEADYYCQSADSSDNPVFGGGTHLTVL", "binding signal (nm)", "nm", 0.03],
  ["2F09 mouse IgG1 (antibody, V domains shown, VH on mouse IgG1 heavy chain constant domains (CH1-CH2-CH3), VL on mouse lambda light chain constant domain; also called 2F09 mIgG1) VH: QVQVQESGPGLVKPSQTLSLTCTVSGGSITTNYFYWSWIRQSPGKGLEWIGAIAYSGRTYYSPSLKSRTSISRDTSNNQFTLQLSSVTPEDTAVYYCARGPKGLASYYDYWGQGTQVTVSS VL: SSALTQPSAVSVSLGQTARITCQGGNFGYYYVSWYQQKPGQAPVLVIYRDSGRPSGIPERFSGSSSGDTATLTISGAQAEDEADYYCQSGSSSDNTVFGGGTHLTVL", "binding signal (nm)", "nm", 0.12],
  ["6B06 mouse IgG1 (antibody, V domains shown, also called 6B06 mIgG1) VH: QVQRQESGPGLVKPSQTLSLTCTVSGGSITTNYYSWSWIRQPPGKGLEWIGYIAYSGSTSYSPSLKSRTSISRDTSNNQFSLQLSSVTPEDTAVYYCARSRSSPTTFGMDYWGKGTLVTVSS VL: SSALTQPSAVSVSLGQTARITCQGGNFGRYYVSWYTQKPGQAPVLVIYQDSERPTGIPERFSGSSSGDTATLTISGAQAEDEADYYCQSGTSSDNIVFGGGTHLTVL", "binding signal (nm)", "nm", 0.06],
  ["6A05 mouse IgG1 (antibody, V domains shown, also called 6A05 mIgG1) VH: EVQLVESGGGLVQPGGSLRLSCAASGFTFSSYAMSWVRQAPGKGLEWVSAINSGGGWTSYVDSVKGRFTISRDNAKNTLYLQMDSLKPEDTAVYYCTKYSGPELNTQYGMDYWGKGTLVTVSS VL: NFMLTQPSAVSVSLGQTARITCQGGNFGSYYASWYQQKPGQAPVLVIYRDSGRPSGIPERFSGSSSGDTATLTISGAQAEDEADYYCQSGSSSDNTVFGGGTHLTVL", "binding signal (nm)", "nm", 0.05]
]}

Fill in: binding signal (nm) of 1D11 mouse IgG1 (antibody, V domains shown, VH on mouse IgG1 heavy chain constant domains (CH1-CH2-CH3), VL on mouse lambda light chain constant domain; also called 1D011; 1D11 mIgG1) VH: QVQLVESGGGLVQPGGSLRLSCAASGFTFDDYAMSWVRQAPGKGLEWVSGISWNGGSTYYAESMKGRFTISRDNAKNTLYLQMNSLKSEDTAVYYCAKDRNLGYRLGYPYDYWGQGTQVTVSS VL: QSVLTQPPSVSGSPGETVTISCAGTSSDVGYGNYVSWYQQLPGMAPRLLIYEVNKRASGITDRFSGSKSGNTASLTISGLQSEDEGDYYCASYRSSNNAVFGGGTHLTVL is ___
0.06

Fill in: binding signal (nm) of 2C07 mouse IgG1 (antibody, V domains shown, VH on mouse IgG1 heavy chain constant domains (CH1-CH2-CH3), VL on mouse lambda light chain constant domain; also called 2C07 mIgG1) VH: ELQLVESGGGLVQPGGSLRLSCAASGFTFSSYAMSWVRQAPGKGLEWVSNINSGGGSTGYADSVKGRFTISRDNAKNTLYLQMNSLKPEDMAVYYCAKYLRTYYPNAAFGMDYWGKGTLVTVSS VL: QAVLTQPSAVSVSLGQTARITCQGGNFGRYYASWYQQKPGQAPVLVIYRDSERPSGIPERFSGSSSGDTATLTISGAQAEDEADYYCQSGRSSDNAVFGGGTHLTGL is ___
0.04
